- Test Description: NCI Yeast Anticancer Drug Screen. Data for the sgs1 mgt1 strain (AID 161);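 note: 0% = growth of cultures given vehicle only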
- Experimental Parameters: S. cerevisiae sgs1 mgt1 strain, at 50.0 µM, active compounds read high
About 79,000 compounds went through this panel and 15% of them were active in at least one assay; those are over-represented in the sample as a whole.
// reported growth inhibition per item

- Molecule: "CCOC(=O)C1S(=O)(=O)OCCOS1(=O)=O"
  growth inhibition [%]: -7.45
- Molecule: "NC(=O)N/N=C/c1ccc(Cl)cc1Cl"
  growth inhibition [%]: -8.25
- Molecule: "O=C1CN(CCCN2CCOCC2)CC(=O)N2Cc3ccccc3CN12"
  growth inhibition [%]: -9.45
- Molecule: "[O-]/[N+](=C\\c1cccc(O)c1)c1ccccc1"
  growth inhibition [%]: 11.8
- Molecule: "CC(=O)N(C(C)=O)n1c(Cc2ccc(C)cc2)nn(C(C)=O)c1=O"
  growth inhibition [%]: -16.9
- Molecule: "Cc1nc2cncnc2n(CCN2CCOCC2)c1=O"
  growth inhibition [%]: 23.2
- Molecule: "CCC1C(C#N)(C#N)C1(C#N)C#N"
  growth inhibition [%]: 7.45
- Molecule: "Oc1ccc(Cl)cc1-c1cc(-c2ccccc2)nc(=S)[nH]1"
  growth inhibition [%]: -17.6
- Molecule: "CCOC(=O)c1sc(N)nc1C"
  growth inhibition [%]: -17.2
- Molecule: "C=C(C)COc1ccc2c(c1)CCC1C2CCC2(C)C1CCC2(C)O (configuration not stated)"
  growth inhibition [%]: 3.75
- Molecule: "CCCCCCCCCCCCCCCCOC(=O)c1cc([N+](=O)[O-])cc([N+](=O)[O-])c1Sc1ncnc2nc[nH]c12"
  growth inhibition [%]: 3.5
- Molecule: "CCOC(SCC)C(O)C(O)C(O)C(O)CO (configuration not stated)"
  growth inhibition [%]: 20.4

====

- Test Description: NCI Yeast Anticancer Drug Screen. Data for the rad50 strain (AID 155);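 note: 0% = growth of vehicle-only cultures of the same strain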
- Experimental Parameters: S. cerevisiae rad50 strain growth inhibition; at 50.0 µM; active compounds read high
About 79,000 compounds went through this panel and 15% of them were active in at least one assay; those are over-represented in the sample as a whole. Where a SMILES comes first, the peptide text is derived from it. The star is where a group is joined. Cbz = O=C(OCc1ccccc1)*

- Molecule: "COc1cc2nncc(SCc3ccc(Cl)cc3)c2cc1OC"
  growth inhibition / %: -1
- Molecule: "Cc1cc(Cc2cc(C)c(O)c(CN(C)C)c2)cc(CN(C)C)c1O"
  growth inhibition / %: -1.8
- Molecule: "O=c1[nH]n(Cc2ccccn2)c2ccc([N+](=O)[O-])cc12"
  growth inhibition / %: 4.1
- Molecule: "Cc1ccc2ccccc2c1CC(=O)NN"
  growth inhibition / %: 6.6
- Molecule: "C[N+](C)(C)CC(=O)N/N=C(\\Cc1nc2ccc([N+](=O)[O-])cc2[nH]c1=O)C(=O)Nc1nc2ccc([N+](=O)[O-])cc2s1"
  growth inhibition / %: 47.2
- Molecule: "CCCCCCCCCC[N+](C)(C)CC(O)CO (configuration not stated)"
  growth inhibition / %: -51.8
- Molecule: "Cc1ccc2ccc(=O)oc2c1"
  growth inhibition / %: 7.9
- Molecule: "CN(O)C(=O)Cc1ccccc1"
  growth inhibition / %: 3.5
- Molecule: "OC(c1ccccc1)(c1ccccc1)c1ccccc1C(O)(c1ccccc1)c1ccccc1"
  growth inhibition / %: 12.2
- Molecule: "COc1cc(C(=O)NO)c(Br)c(OC)c1OC"
  growth inhibition / %: -3.5
- Molecule: "O=[N+]([O-])c1ccc(N=Cc2ccc(O)cc2)cc1"
  growth inhibition / %: -17.9
- Molecule: "CC12CCCCC1C(C(C)(C)OC(=O)c1ccc([N+](=O)[O-])cc1)CC2 (configuration not stated)"
  growth inhibition / %: 15
- Molecule: "CC1CC[P+](c2ccccc2)(c2ccccc2)CC1"
  growth inhibition / %: 22.9
- Molecule: "C=CC(O)C(C)C (configuration not stated)"
  growth inhibition / %: 10.7
- Molecule: "CN(C)C(=O)C1OC1(C)c1ccccc1 (configuration not stated)"
  growth inhibition / %: -7.75
- Molecule: "CN(C)C(=S)SCC(=O)c1ccccc1"
  growth inhibition / %: -23.1
- Molecule: "C/C=C/Cc1ccccc1O"
  growth inhibition / %: 7.1
- Molecule: "O=P(O)(O)c1ccc(Oc2ccccc2)cc1"
  growth inhibition / %: -8.6
- Molecule: "Cc1cc(CC(O)(c2ccccc2)c2ccccc2)nc2[nH]c(=O)ccc12"
  growth inhibition / %: 0.7
- Molecule: "CC(O)(c1ccc(OCCC[N+](C)(C)C)cc1)C(C)(O)c1ccc(OCCC[N+](C)(C)C)cc1 (configuration not stated)"
  growth inhibition / %: -25.5
- Molecule: "CC(C)C(NC(=O)C(Cc1ccc(O)cc1)NC(=O)OCc1ccccc1)C(=O)O (stereo not drawn) (Cbz-Tyr-Val-OH; configuration not given here)"
  growth inhibition / %: 10.2
- Molecule: "CNC(=O)SC1=NS(=O)(=O)c2ccc(Cl)cc2N1"
  growth inhibition / %: 18.6
- Molecule: "CC(=O)NCCc1ccc(OC(C)=O)c(OC(C)=O)c1"
  growth inhibition / %: 0.15
- Molecule: "CC(=O)OC1=C(C)C2=C3OC(=O)C(C)=C3CC[C@@]2(C)[C@@H](Cl)[C@@H]1Cl"
  growth inhibition / %: 40.9
- Molecule: "NNC(=O)C(CSC(c1ccccc1)(c1ccccc1)c1ccccc1)NC(=O)OCc1ccccc1 (configuration not stated)"
  growth inhibition / %: 87.1
- Molecule: "c1ccc(-c2cc3ccccc3c(-c3ccccc3)c2-c2ccccc2)cc1"
  growth inhibition / %: -18.6
- Molecule: "CS(=O)(=O)Oc1c(Cl)cc(Cl)c2cccnc12"
  growth inhibition / %: 7.8
- Molecule: "COC(=O)C(=C/c1ccc(OC)cc1)/C(C(=O)O)=C(/C)c1ccccc1"
  growth inhibition / %: 9.9
- Molecule: "O=[N+]([O-])c1ccccc1OC1OC(CO)C(O)C(O)C1O (configuration not stated)"
  growth inhibition / %: -2.35
- Molecule: "COC(=O)C(=O)C(C(=O)C(=O)Nc1ccccc1[N+](=O)[O-])c1nc2ccc([N+](=O)[O-])cc2[nH]c1=O (configuration not stated)"
  growth inhibition / %: 17.8
- Molecule: "COc1cc(C=O)cc(NC(C)=O)c1OC(C)=O"
  growth inhibition / %: 6.55
- Molecule: "CCc1ccc(OC(C)=O)cc1"
  growth inhibition / %: 12.5
- Molecule: "Nc1nc2c(c(=O)[nH]1)C(c1ccccc1)C(c1ccccc1)C2 (configuration not stated)"
  growth inhibition / %: -2.85
- Molecule: "O=C1CN2C(c3ccccc3)=NN(c3ccc([N+](=O)[O-])cc3)C2(c2ccccc2)c2cc(Cl)ccc2N1CC1CC1 (configuration not stated)"
  growth inhibition / %: 25.6
- Molecule: "CC(=O)CC(=O)Nc1ccccc1C(C)C"
  growth inhibition / %: 12.9
- Molecule: "CC(CO)(CO)N1C(=O)c2cccc3cc([N+](=O)[O-])cc(c23)C1=O"
  growth inhibition / %: 31.4
- Molecule: "CCCCOCN1COCN(COCCCC)C1=O"
  growth inhibition / %: -2.3
- Molecule: "COC(=O)C1C(=O)C2OC1C1OC(C)(C)OC21 (configuration not stated)"
  growth inhibition / %: 7.75
- Molecule: "COc1ccc(Nc2nc3c(N)cc(C(F)(F)F)cc3nc2-c2ccccc2)cc1OC"
  growth inhibition / %: 0.5
- Molecule: "NCc1ccc2ccc3ccccc3c2c1"
  growth inhibition / %: 11.1
- Molecule: "O=C(CC1NCCS1)OCc1ccc(Br)cc1 (configuration not stated)"
  growth inhibition / %: 26.5
- Molecule: "Cc1cc(C)c(Br)c(C)c1C"
  growth inhibition / %: -17.4
- Molecule: "CCc1cccc(CC)c1NC(=O)c1ccccc1Cl"
  growth inhibition / %: 7.9
- Molecule: "Clc1ccc(NC2=NCCN=C(Nc3ccc(Cl)cc3)SS2)cc1"
  growth inhibition / %: 23.7
- Molecule: "CC1CC=C2CCCCC2(C)C1C (configuration not stated)"
  growth inhibition / %: 8.7
- Molecule: "COc1cccc(C2c3cc4c(cc3OC(N3CCCCC3)C2C)OCO4)c1OC (configuration not stated)"
  growth inhibition / %: 33.1
- Molecule: "CC(=O)Oc1cc2c3ccccc3ccc2c2ccccc12"
  growth inhibition / %: 13
